target: Integrin alpha-IIb/beta-3 (Homo sapiens, UniProt P05106+P08514); assay: Inhibition of biotinylated fibrinogen binding to isolated alpha IIb beta-3 integrin; assay type: protein-complex assay
Sequence (P05106 27-788 limits assumed): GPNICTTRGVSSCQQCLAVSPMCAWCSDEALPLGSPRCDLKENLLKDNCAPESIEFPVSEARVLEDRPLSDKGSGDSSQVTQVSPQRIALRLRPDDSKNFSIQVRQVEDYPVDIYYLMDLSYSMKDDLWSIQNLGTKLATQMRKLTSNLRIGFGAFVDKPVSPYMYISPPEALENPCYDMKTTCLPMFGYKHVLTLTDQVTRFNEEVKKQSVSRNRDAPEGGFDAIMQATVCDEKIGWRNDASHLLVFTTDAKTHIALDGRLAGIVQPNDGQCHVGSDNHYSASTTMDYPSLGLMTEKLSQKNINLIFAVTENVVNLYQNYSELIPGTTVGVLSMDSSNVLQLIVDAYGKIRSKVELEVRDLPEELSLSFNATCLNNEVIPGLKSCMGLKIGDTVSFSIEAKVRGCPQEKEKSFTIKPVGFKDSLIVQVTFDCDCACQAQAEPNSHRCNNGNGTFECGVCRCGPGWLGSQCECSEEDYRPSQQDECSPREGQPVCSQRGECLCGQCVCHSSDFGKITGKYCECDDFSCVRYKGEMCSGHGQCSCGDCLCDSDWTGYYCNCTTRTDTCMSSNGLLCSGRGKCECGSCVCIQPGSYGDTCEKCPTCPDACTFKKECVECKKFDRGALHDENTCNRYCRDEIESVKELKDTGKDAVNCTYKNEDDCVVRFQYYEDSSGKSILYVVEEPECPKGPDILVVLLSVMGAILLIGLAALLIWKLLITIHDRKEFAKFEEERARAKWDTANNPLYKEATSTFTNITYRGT
Sequence (P08514 32-887 limits assumed): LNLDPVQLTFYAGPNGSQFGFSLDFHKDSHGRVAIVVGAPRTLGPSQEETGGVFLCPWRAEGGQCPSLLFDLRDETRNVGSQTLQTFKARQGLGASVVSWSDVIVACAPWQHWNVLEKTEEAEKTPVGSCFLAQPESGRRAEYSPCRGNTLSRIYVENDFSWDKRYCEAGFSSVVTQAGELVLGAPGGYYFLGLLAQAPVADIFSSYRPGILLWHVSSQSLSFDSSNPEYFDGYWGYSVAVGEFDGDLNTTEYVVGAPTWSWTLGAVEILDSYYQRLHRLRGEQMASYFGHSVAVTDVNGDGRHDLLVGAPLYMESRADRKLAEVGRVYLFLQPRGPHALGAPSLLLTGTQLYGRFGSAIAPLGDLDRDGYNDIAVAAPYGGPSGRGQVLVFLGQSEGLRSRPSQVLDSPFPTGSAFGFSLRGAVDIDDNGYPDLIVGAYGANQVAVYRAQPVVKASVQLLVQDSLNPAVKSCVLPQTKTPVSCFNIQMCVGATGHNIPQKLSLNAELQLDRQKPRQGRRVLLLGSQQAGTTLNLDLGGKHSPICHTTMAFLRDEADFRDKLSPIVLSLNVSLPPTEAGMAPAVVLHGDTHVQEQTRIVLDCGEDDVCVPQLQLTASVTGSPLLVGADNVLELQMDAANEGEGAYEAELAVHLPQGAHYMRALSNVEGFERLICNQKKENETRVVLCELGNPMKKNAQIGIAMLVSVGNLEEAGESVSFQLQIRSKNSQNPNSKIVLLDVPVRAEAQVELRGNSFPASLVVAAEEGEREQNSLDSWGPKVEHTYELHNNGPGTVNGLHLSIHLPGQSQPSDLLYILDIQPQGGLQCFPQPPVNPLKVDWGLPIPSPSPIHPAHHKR
Sequence (P08514 891-1039 limits assumed): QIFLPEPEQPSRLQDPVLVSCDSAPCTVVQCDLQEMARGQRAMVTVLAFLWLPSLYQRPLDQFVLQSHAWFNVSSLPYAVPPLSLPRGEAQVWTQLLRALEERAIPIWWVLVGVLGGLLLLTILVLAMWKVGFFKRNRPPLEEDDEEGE
Peptide text beside a SMILES is read from it.
assay.endpoint: IC50 (nM)

Sample answers from the record:
CC(C)(C)OC(=O)N[C@@H](CCCCN)C(=O)N1CCCC(C(=O)NCC(=O)O)C1 (some centres undefined) :: 50000
CC(C)(C)OC(=O)N[C@H](CCCCN)C(=O)N1CCCC(C(=O)NCCC(=O)O)C1 (some centres undefined) :: 740
O=C(O)CCNC(=O)C1CCCN(C(=O)CCC2CCNCC2)C1 (centres undefined) :: 9
NCCCC[C@@H](N)C(=O)N1CCCC(C(=O)NCCC(=O)O)C1 (some centres undefined) :: 2600
NCCCC[C@H](N)C(=O)N1CCCC(C(=O)NCCC(=O)O)C1 (some centres undefined) :: 760
CC(C)(C)OC(=O)N[C@@H](CCCCNC(=O)OCc1ccccc1)C(=O)N1CCC[C@@H](C(=O)NCCC(=O)O)C1 :: 20000
N=C(N)NCCC[C@H](N)C(=O)NCC(=O)N[C@@H](CC(=O)O)C(=O)N[C@@H](CS)C(=O)O (H-RGDC-OH) :: 1000
CC(C)(C)OC(=O)N[C@@H](CCCCN)C(=O)N1CCC[C@H](C(=O)NCCC(=O)O)C1 :: 28
CC(C)(C)OC(=O)N[C@@H](CCCCN)C(=O)N1CCC[C@@H](C(=O)NCCC(=O)O)C1 :: 8
CC(C)(C)OC(=O)N[C@H](CCCN=C(N)N)C(=O)N1CCCC(C(=O)NCCC(=O)O)C1 (some centres undefined) :: 2700

I = CC(=O)N[C@H](CCCCN)C(=O)N1CCCC(C(=O)NCCC(=O)O)C1 (some centres undefined)
II = CC(=O)N[C@@H](CCCCN)C(=O)N1CCCC(C(=O)NCCC(=O)O)C1 (some centres undefined)
III = CC(C)(C)OC(=O)N[C@@H](CCCCN)C(=O)N1CCCC(C(=O)NCCC(=O)O)C1 (some centres undefined)
In: Ordering: ascending IC50. The reply should contain the labels ordered as requested.
Out: III, I, II

* * *

organism: Homo sapiens; assay: Percent inhibition of thrombin-induced platelet aggregation at 50 uM.; format: functional
assay.endpoint: inhibition at 50 µM (%)
The answer is to be given in %; state only the numeric part.

COC(=O)CNC12CC3CC(C1)CC(NC(=O)C(CCCCN)NC(=O)OCC1c4ccccc4-c4ccccc41)(C3)C2 (stereo not drawn) :: 25
NCCCCC(NC(=O)OCc1ccccc1)C(=O)NC12CC3CC(C1)CC(N(CC(=O)O)C(=O)COc1ccccc1)(C3)C2 (stereo not drawn) :: 2
CC(C)(C)OC(=O)NC(CCCN=C(N)N)C(=O)NC12CC3CC(CC(NCC(=O)O)(C3)C1)C2 (stereo not drawn) :: 9
NCCCCC(NC(=O)OCc1ccccc1)C(=O)NC12CC3CC(CC(NCC(=O)O)(C3)C1)C2 (stereo not drawn) :: 24

In: So what does the record say about inhibition at 50 µM for COC(=O)CC(NC(=O)CNC12CC3CC(C1)CC(NC(=O)C(CCCCN)NC(=O)OCC1c4ccccc4-c4ccccc41)(C3)C2)C(=O)NC(C(=O)OC)C(C)C (stereo not drawn) ?
Out: 15

In: Queued: O=C(O)CNC12CC3CC(C1)CC(NC(=O)CCC1CCNCC1)(C3)C2
Out: 5

In: Queued: CC(C)NCCCCC(NC(=O)OC(C)(C)C)C(=O)NC12CC3CC(CC(NCC(=O)O)(C3)C1)C2 (stereo not drawn)
Out: 3

In: Queued: C[C@H](NC(=O)OCC1c2ccccc2-c2ccccc21)C(=O)N[C@@H](CCCCN)C(=O)NC12CC3CC(CC(NCC(=O)O)(C3)C1)C2
Out: 37

* * *

species on record: Homo sapiens; assay: Inhibition of collagen-induced platelet aggregation […].; assay type: functional
assay.endpoint: IC50 (nM)

a = CC(C)(C)OC(=O)N[C@@H](CCCCN)C(=O)N1CCC[C@@H](C(=O)NCCC(=O)O)C1
b = O=C(O)CCNC(=O)C1CCCN(C(=O)CCC2CCNCC2)C1 (centres undefined)
c = COC(=O)[C@H](CC(=O)O)NC(=O)C1CCCN(C(=O)[C@H](CCCCN)NC(=O)OC(C)(C)C)C1 (some centres undefined)
d = CC(C)(C)OC(=O)N[C@@H](CCCCN)C(=O)N1CCCC(C(=O)NCCC(=O)O)C1 (some centres undefined)
In: Give the order of the entries above, sorted from least to greatest IC50. The reply should contain the labels ordered as requested.
Out: b, a, d, c

* * *

target: Integrin alpha-IIb/beta-3 (Homo sapiens, UniProt P05106+P08514); experiment: Inhibition of fibrinogen binding to isolated integrin alphaIIb-beta3 at 50 uM.; assay type: protein-complex assay
assay.endpoint: pIC50
pIC50 (log units): -log10 of the concentration in mol/L.

In: So what does the record say about pIC50 for CC(C)NCCCCC(NC(=O)OC(C)(C)C)C(=O)NC12CC3CC(CC(NCC(=O)O)(C3)C1)C2 (stereo unspecified) ?
Out: 4.52

* * *

species on record: Homo sapiens; experiment: Inhibition (at 10 uM) of thrombin-induced platelet aggregation; assay type: functional
Recorded inhibition at 10 µM values for a group of compounds are listed next.
The answer is to be given in %; state only the numeric part.

In: So what does the record say about inhibition at 10 µM for CC(C)(C)OC(=O)N[C@@H](CCCCN)C(=O)N1CCCC(C(=O)NCC(=O)O)C1 (some centres not stated) ?
Out: 7

In: Queued: NCCCC[C@H](N)C(=O)N1CCCC(C(=O)NCCC(=O)O)C1 (some centres not stated)
Out: 48

In: Queued: CC(C)(C)OC(=O)N[C@@H](CCCCN)C(=O)N1CCCC(C(=O)NCCC(=O)O)C1 (some centres not stated)
Out: 87

In: Queued: CC(C)(C)OC(=O)N[C@H](CCCN=C(N)N)C(=O)N1CCCC(C(=O)NCCC(=O)O)C1 (some centres not stated)
Out: 0

In: Queued: CC(=O)N[C@@H](CCCCN)C(=O)N1CCCC(C(=O)NCCC(=O)O)C1 (some centres not stated)
Out: 67

In: Queued: CC(C)(C)OC(=O)N[C@@H](CCCCN)C(=O)N1CCC[C@@H](C(=O)NCCC(=O)O)C1
Out: 87

* * *

molecular target: Integrin alpha-IIb/beta-3 (Homo sapiens, UniProt P05106+P08514); experiment: Inhibition of fibrinogen binding to isolated integrin alphaIIb-beta3 at 50 uM.; type: protein-complex assay
assay.endpoint: inhibition (%)

NCCCCC(NC(=O)OCc1ccccc1)C(=O)NC12CC3CC(C1)CC(N(CC(=O)O)C(=O)COc1ccccc1)(C3)C2 (configuration not stated) :: 33
C[C@H](NC(=O)OCC1c2ccccc2-c2ccccc21)C(=O)N[C@@H](CCCCN)C(=O)NC12CC3CC(CC(NCC(=O)O)(C3)C1)C2 :: 42
NCCCCC(NC(=O)OCc1ccccc1)C(=O)NC12CC3CC(CC(NCC(=O)O)(C3)C1)C2 (configuration not stated) :: 26

1 = CC(C)(C)OC(=O)NC(CCCN=C(N)N)C(=O)NC12CC3CC(CC(NCC(=O)O)(C3)C1)C2 (configuration not stated)
2 = COC(=O)CC(NC(=O)CNC12CC3CC(C1)CC(NC(=O)C(CCCCN)NC(=O)OCC1c4ccccc4-c4ccccc41)(C3)C2)C(=O)NC(C(=O)OC)C(C)C (configuration not stated)
3 = O=C(O)CNC12CC3CC(C1)CC(NC(=O)CCC1CCNCC1)(C3)C2
4 = COC(=O)CNC12CC3CC(C1)CC(NC(=O)C(CCCCN)NC(=O)OCC1c4ccccc4-c4ccccc41)(C3)C2 (configuration not stated)
In: Ordering: ascending inhibition. The reply should contain the labels ordered as requested.
Out: 2, 4, 1, 3
(2: 0%, 4: 1%, 1: 28%, 3: 49%)

* * *

organism: Homo sapiens; test: Inhibition (at 10 uM) of thrombin-induced platelet aggregation; assay type: functional
assay.endpoint: inhibition at 10 µM (%)
The answer is to be given in %; state only the numeric part.

In: So what does the record say about inhibition at 10 µM for NCCCCCC(=O)N1CCCC(CNCCC(=O)O)C1 (stereo unspecified) ?
Out: 24

In: Queued: NCCCC[C@@H](N)C(=O)N1CCCC(C(=O)NCCC(=O)O)C1 (stereo partly specified)
Out: 1

In: Queued: CC(C)(C)OC(=O)N[C@@H](CCCCN)C(=O)N1CCCC(C(=O)NCCCC(=O)O)C1 (stereo partly specified)
Out: 7

In: Queued: CC(C)NCCCC[C@@H](NC(=O)OC(C)(C)C)C(=O)N1CCCC(C(=O)NCCC(=O)O)C1 (stereo partly specified)
Out: 6

In: Queued: NCCCCCC(=O)N1CCCC(C(=O)NCCC(=O)O)C1 (stereo unspecified)
Out: 87

In: Queued: CC(C)(C)OC(=O)N[C@H](CCCCN)C(=O)N1CCCC(C(=O)NCCC(=O)O)C1 (stereo partly specified)
Out: 12
